Biological target: Aldo-keto reductase family 1 member A1 (Rattus norvegicus, UniProt P51635)
Sequence (P51635 whole entry): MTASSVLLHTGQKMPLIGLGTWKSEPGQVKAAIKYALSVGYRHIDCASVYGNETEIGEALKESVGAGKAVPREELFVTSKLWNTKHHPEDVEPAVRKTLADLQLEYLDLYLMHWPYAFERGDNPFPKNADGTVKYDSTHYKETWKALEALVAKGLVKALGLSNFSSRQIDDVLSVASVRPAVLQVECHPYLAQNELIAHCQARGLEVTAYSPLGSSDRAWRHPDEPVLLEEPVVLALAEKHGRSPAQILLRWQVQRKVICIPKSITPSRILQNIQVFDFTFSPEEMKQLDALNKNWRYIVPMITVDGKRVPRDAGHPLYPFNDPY
pIC50: −log10 of the molar value.
measure_name: pIC50

COc1ccc(C(=O)Nc2ccc(S(=O)(=O)Nc3cc(F)c(O)c(F)c3)cc2)cc1    4.91
O=S(=O)(Nc1cc(F)c(O)c(F)c1)c1ccc(C(F)(F)F)cc1    3.98

a = O=[N+]([O-])c1ccc(S(=O)(=O)Nc2cc(F)c(O)c(F)c2)cc1
b = Nc1ccc(S(=O)(=O)N(Cc2ccc(Br)cc2F)c2cc(F)c(O)c(F)c2)cc1
c = Nc1ccc(S(=O)(=O)Nc2cc(F)c(O)c(F)c2)cc1
Arrange these compounds by their pIC50, starting with the largest number. Answer with the labels in sequence, matching the requested order. b, c, a
